So I've got a bunch of compounds here, and I need their response values.
assay: cytosolic pH regulators acting via V-ATPase – S. cerevisiae, pHLuorin, HTS validation (AID 504600); conditions: V-ATPase proton transport, at 10 µM, active compounds read high;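 also: plate controls were DMSO for no effect and reference compound for full effect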
Give bare numbers, in %.

COc1ccc(Br)cc1C(=O)Nc1ccc(C(=O)O)cc1 : 1.41
N#C/C(=C/c1ccccc1)C(=O)NCc1ccccc1 : -0.63

Give measured response for every item shown.
1. Cc1cccc(CN2CCN(C(c3ccccc3)c3ccc(Cl)cc3)CC2)c1 (stereo not given)
2. CCc1cc(C(N)=S)ccn1
3. CCOc1ccc2[nH]c3c(=O)n(CCc4ccc(OC)cc4)cnc3c2c1
4. CS(=O)(=O)c1cccc(C(=O)Oc2ccccc2)c1
5. Cc1csc(N)n1
6. O=C(CC(NC(=O)OCc1ccccc1)C(=O)O)OCc1ccccc1 (stereo not given)
7. COc1ccc(C(=O)CCN2CCc3cc(OC)c(OC)cc3C2)cc1

Data returned:
1. 0.49
2. -4.94
3. 65.9
4. -0.27
5. -1.8
6. -3.27
7. -2.28

###

assay: calorie-restriction mimetic ROS inhibitors, yeast – validation compound set, pilot screen (AID 2706);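 also: yeast exposed to compound for one week at 30 degrees C before staining; 100% = mean of all compound wells on the same plate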; conditions: S. cerevisiae aging, superoxide DHE fluorescence; at 10 µM; active compounds read low
parameterMeasured: superoxide response (% of plate) (%)
Answers are plain numbers, in %.

// solved cases for superoxide response (% of plate) follow
CC(C)(CO)CNC(=O)CC1C(=O)NCCN1CC(c1ccccc1)c1ccccc1 (stereo not given) : 115
CC1(C)C(=O)OC(C(=O)c2ccc(Cl)cc2)C(C)(C)C1=O (stereo not given) : 104
Cc1ccc(C)c(OCCCC(C)(C)C(=O)O)c1 : 104

Give measured superoxide response (% of plate) for every item shown.
1. CC(C)=CCC(C)(C)/C=N/NC(N)=O
2. O=C1CCCN1C(=O)CCC(=O)N1CCCC1=O
3. C=CCNc1nc2c(c(=O)n(C)c(=O)n2C)n1CC(=C)C
4. CC(=O)[C@@]1(O)CC[C@H]2[C@@H]3C[C@H](C)C4=CC(=O)C=C[C@]4(C)[C@@]3(F)[C@@H](O)C[C@@]21C
5. CCOC(=O)C(NC(=O)CCC(=O)Nc1ccc(S(N)(=O)=O)cc1)C(O)c1ccccc1 (stereo not given)

Data returned:
[97.9, 96.9, 103, 99.4, 102]

Give measured superoxide response (% of plate) for every item shown.
1. COc1ccc(-c2c[n+](CC(=O)OC3CC(C)CCC3C(C)C)c3n2CCC3)cc1 (stereo not given)
2. CC(OC(=O)c1cc(=O)[nH]c2ccccc12)C(=O)c1ccccc1 (stereo not given)

Data returned:
[97.3, 96.4]

###

So I've got a bunch of compounds here, and I need their inhibition values.
molecular target: AP-2 complex subunit beta (Homo sapiens) (UniProt P63010); assay: beta-arrestin/AP2 interaction blockers – biochemical, validation set, GST-AP2 beads, flow cytometry, pilot screen (AID 504541); settings: FITC arrestin peptide, at 10 µM, active compounds read high, AP2 beta2 appendage fragment, R879A mutant;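 also: AP2 carries R879A mutation and is captured from E. coli lysate; bead-bound FITC arrestin peptide fluorescence measuring arrestin peptide binding to AP2; 0% = DMSO wells and 100% = excess unlabeled arrestin peptide control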
Sequence (P63010 whole entry, looked up, the tested form may be a part, one chain of several): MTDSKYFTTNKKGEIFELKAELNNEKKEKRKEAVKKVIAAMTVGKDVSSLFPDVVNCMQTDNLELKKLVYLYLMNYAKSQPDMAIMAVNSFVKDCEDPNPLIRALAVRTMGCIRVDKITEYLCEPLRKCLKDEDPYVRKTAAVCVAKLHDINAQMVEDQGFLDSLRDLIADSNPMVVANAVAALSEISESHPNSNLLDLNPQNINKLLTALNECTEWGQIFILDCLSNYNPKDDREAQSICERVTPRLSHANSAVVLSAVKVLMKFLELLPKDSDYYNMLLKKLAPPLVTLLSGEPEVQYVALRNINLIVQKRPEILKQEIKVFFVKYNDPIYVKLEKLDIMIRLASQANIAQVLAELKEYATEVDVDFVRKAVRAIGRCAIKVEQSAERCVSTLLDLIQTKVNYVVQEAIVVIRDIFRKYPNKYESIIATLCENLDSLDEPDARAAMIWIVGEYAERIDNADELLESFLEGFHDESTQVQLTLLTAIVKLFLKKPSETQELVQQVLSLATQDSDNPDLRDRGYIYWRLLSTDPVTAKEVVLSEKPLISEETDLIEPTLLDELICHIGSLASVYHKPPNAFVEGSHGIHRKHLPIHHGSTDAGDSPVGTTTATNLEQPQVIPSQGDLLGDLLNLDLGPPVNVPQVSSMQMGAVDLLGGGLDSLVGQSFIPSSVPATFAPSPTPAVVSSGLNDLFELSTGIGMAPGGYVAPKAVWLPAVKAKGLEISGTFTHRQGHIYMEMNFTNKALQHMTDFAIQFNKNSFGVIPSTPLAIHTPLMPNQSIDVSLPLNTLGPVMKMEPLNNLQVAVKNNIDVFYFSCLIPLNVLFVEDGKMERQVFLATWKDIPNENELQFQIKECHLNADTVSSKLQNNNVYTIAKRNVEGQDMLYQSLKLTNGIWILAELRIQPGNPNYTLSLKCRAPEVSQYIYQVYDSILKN
Numbers only, in %.

O=C1OC(c2ccccc2)=C/C1=C/c1cccs1 : 6.48
NC(N)=NC(=O)Cc1c(Cl)cccc1Cl : 18
CC(C)C(=O)Nc1c(O)c2ccccc2[nH]c1=O : -0.19

Give measured inhibition for every item shown.
1. C[C@]12CC[C@@H]3c4ccc(O)cc4CC[C@H]3[C@@H]1CC[C@@H]2O
2. COC(=O)c1cc(OC)c(OC)cc1NC(=O)CN1C(=O)c2ccccc2C1=O
3. Cc1ccc2c(c1C)NC(C(=O)O)C1CC=CC21 (configuration not stated)
4. CN(C)CCCN1c2ccccc2Sc2ccccc21
5. Cc1cc(-c2nn(-c3ccccc3F)cc2CN2CCCC(O)C2)c(C)s1 (configuration not stated)
6. O=C(/C=C/c1ccc(F)cc1)NC(=S)N1CCCCC1c1cccnc1 (configuration not stated)
7. CC(=O)OC(C)C[N+](C)(C)C (configuration not stated)
8. Cc1ccc(C(=O)Nc2ccccc2C(=O)NC(C(=O)O)C(C)C)cc1 (configuration not stated)

Data returned:
21.6
-9.37
11
7.22
-12.6
1.74
-17.2
10.5

Data request: Give recorded inhibition. CCN(CC)C(=O)c1sc(NC(=O)c2c(OC)cccc2OC)c(C#N)c1C
Data returned: -5.78

###

target: Integrin beta-1 (Homo sapiens) + Integrin alpha-4 (Homo sapiens) (UniProt P13612+P05556); experiment: alpha4beta1 integrin LIBS antibody binding reduction – U937 cells, HUTS-21 mAb, flow cytometry, validation set, VLA-4 allosteric modulator project, pilot screen (AID 2674); conditions: HUTS-21 LIBS mAb binding, at 6.7 µM, active compounds read high, binding induced by LDV ligand;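 also: antibody binding induced by the VLA-4 ligand LDV present at three times its Kd; 0% = LDV ligand with antibody and no compound and 100% = antibody without LDV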
Sequence (P05556 whole entry, looked up): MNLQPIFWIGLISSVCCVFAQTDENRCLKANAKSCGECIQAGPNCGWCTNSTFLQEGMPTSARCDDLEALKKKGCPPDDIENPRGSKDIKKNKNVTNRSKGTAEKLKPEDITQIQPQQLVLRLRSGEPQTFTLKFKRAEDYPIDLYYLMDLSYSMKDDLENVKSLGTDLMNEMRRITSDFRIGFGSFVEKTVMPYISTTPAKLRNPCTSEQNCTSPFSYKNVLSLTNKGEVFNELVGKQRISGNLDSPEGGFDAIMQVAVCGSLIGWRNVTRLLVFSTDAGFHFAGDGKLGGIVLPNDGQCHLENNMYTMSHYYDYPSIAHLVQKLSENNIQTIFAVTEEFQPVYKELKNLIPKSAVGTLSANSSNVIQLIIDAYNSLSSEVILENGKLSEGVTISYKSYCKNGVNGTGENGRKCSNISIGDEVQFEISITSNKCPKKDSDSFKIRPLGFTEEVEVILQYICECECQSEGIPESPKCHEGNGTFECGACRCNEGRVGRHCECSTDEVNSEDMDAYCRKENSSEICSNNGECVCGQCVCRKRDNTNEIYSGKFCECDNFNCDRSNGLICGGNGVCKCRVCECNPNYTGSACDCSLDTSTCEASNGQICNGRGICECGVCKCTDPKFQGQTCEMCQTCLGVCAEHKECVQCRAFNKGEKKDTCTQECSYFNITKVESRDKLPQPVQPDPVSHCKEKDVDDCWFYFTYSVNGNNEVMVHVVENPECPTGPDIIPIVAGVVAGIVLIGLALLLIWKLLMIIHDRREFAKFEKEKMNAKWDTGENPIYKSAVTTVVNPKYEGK
Sequence (P13612 whole entry, looked up): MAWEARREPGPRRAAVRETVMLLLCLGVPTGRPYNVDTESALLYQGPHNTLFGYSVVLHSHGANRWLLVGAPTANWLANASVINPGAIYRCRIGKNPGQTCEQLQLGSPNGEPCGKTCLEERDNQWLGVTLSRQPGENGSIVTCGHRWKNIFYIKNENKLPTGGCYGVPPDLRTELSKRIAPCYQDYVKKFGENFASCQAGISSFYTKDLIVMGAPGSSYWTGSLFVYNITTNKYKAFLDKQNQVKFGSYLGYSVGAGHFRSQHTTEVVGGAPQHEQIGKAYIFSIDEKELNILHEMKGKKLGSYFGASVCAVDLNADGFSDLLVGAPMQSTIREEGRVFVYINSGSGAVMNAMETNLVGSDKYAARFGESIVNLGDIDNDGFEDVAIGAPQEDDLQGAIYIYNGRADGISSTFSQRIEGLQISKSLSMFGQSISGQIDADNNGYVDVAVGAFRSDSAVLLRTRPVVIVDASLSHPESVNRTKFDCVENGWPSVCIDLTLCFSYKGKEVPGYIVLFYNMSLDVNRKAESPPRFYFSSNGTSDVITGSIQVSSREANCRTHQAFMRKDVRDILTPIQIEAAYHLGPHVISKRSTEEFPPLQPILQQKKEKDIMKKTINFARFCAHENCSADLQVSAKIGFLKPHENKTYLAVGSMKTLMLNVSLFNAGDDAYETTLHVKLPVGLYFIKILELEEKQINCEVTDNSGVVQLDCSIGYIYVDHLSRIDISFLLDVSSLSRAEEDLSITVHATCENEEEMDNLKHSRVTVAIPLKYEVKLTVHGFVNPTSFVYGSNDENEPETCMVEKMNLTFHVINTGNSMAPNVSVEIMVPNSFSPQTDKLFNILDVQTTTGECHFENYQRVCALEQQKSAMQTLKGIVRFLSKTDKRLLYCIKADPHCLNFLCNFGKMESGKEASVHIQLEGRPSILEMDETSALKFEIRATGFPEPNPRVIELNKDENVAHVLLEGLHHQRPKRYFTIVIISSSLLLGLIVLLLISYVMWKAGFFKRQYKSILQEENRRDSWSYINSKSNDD
So I've got a bunch of molecules here, and I need their inhibition values.
Give bare numbers, in %.

// solved cases for inhibition follow
NC(N)=NC(=O)Cc1c(Cl)cccc1Cl : -4.6
CCC[C@@H]1C[C@@H](C(=O)N[C@H]([C@@H](C)O)[C@H]2O[C@H](SC)[C@H](O)[C@@H](O)C2O)N(C)C1 (stereo partly specified) : 3.55
CN1CCc2c(n(CC(O)CN(CCO)CCO)c3ccccc23)C1=O (stereo unspecified) : -9.06
Cc1[nH]nc(-c2ccc(O)cc2O)c1Oc1ccccc1 : 4.73
O=C(O)CCCCCN1C(=O)C(=O)/C(=C(/O)c2ccccc2)C1c1ccccc1 (stereo unspecified) : -5.89
C[C@H](CCC(=O)O)[C@H]1CC[C@H]2[C@@H]3C(=O)C[C@@H]4CC(=O)CC[C@]4(C)[C@H]3CC(=O)[C@]12C : 22.7
c1ccc(CC2=NCCN2)cc1 : 0
Cc1c(NC(=O)c2cccs2)cccc1[N+](=O)[O-] : 2.93

Give measured inhibition for every item shown.
1. O=C(O)CCCCCN=C1CCc2ccccc2N1
2. CC(C)=CCCC1=CCC2C(=O)NNC(=O)C2C1 (stereo unspecified)

Data returned:
1: 10.3; 2: -3.16

Data request: Give recorded inhibition. Cc1c2c(nc3c(C)cccc13)OC(C)C2 (stereo unspecified)
Data returned: -3.57

###

assay: AML differentiation inducers, ER-HoxA9 marrow cells – cell-based, GFP/MAC1 double positive, flow cytometry, validation set, primary screen (AID 588685); details: active compounds read high, normalized: vehicle 0, fulvestrant 100;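 also: compound exposure lasts four days before antibody staining and flow analysis; 0% = DMSO wells and 100% = 5 µM fulvestrant positive control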
parameterMeasured: differentiation response (%)
One number for each entry, in %.

// solved cases for differentiation response follow
O=C(c1cccc2ccccc12)C1CCCN(C(=O)CCN2CCCO2)C1 (stereo not drawn) : -0.73
O=C(CN1C(=O)c2ccccc2S1(=O)=O)Nc1ccccc1 : 10.6
OCCN(Cc1nc(-c2ccc3c(c2)OCO3)no1)Cc1cccs1 : 15.9
COCCCNc1nc2c([nH]1)c(=O)[nH]c(=O)n2C : -5.97
Cc1ccc(C2CC(c3cccs3)=NN2C(=O)c2ccco2)o1 (stereo not drawn) : 1.28

Give measured differentiation response for every item shown.
1. CC[C@H]1CN2CCc3cc(OC)c(OC)cc3[C@@H]2C[C@@H]1C[C@H]1NCCc2cc(OC)c(OC)cc21
2. O=C(OCC1CCCN2CCCCC12)c1ccc2c(c1)OCO2 (stereo not drawn)
3. N/C(=N\OC(=O)c1cccc(Br)c1)c1ccncc1

Data returned:
1: 14.4; 2: 0; 3: -4.57

Give measured differentiation response for every item shown.
1. COc1ccccc1OS(=O)(=O)c1ccc(NC(C)=O)cc1
2. COc1ccc(-c2cc(C(=O)N3CCOCC3)c3cc(C)ccc3n2)cc1
3. O=C1CC(c2ccc(O)cc2)Oc2cc(O)cc(O)c21 (stereo not drawn)
4. O=C(O)c1ccc(-c2ccc(O)c(F)c2)cc1
5. CCN(CC)C(=O)N1CCN(C)CC1

Data returned:
1: -4.09; 2: 9.79; 3: 1.22; 4: -6.6; 5: -13.3

Give measured differentiation response for every item shown.
1. CCc1cc2c(C)cc(=O)oc2cc1OC(=O)C1CCCN1C(=O)OC(C)(C)C (stereo not drawn)
2. CC(C)(C)n1c(=O)[nH]c2c(c1=O)CCC2
3. O=C(N/C(=C/C=C\c1ccccc1)C(=O)N1CCOCC1)c1ccc(Br)cc1
4. O=C(O)C1CCN(C(=O)COc2ccc3c4c(c(=O)oc3c2)CCC4)CC1

Data returned:
[-20, -12.9, -6.96, -1.05]

Give measured differentiation response for every item shown.
1. COc1ccc(NC(=O)Nc2ccc(C(C)C)cc2)cc1
2. COc1ccc(OC)c(NC2=C(Cl)C(=O)N(Cc3ccccc3)C2=O)c1
3. Cc1ccsc1C1NC(=O)c2ccccc2N1 (stereo not drawn)
4. COCCOC(=O)C1=C(N)OC2=C(C(=O)CCC2)C1c1cccnc1 (stereo not drawn)
5. COc1cccc(CN2C(=O)N(C(C)C)C(N(O)C(=O)NC(C)C)C2(C)C)c1OC (stereo not drawn)
6. CCOc1ccc(C(=O)NCC2(c3ccccc3)CCOCC2)cc1

Data returned:
2.74
-11.9
-15.2
7.09
7.09
10.1
